Assign apparent KD of MS2 coat protein to each entry below.
test system: MS2 coat protein; experiment: apparent KD of MS2 coat protein; designed switch direction (-1 OFF switch, 1 ON switch): -1; higher = weaker reporter binding; settings: Eterna round: R95; input ligand: microRNA oligo, concentration not stated
Reply with the number and its unit after it.

Hi there! I need apparent KD of MS2 coat protein for each item below, if you can.
1. CAUACACAUGAGGAUCACCCAUGUGAGGAUAUGCGUACGUUGUCCGUAGGCGACGUGCGCAGAAGGCGCGUGAG [JL-ex1-3.14 Eli mod] (puzzle: Exclusion 1)
2. AUUUAAACAUAGGAUAUCGAAUUUAUCAUUUAACGAGAAGGAUGAACAUGAGGAUCACCCAUGUGGUAUCAUGG [Mat - Exclusion 6 - JL Mod - D4] (puzzle: Exclusion 6)
3. AGUAACCGUCACGAAAGUGAUGGUUACACAAGCAUAUGUACAUGAGGAUCACCCAUGUCCUCAACUGCUCGUCUUAU [Sensor 3 - 55] (puzzle: Sensor v3, turn-off variant 2)
4. CUUUUGGGAGGAUAUUAGUAGUAAAUAAAUAAAAUUACUACUGAGAAGGCACAUGAGGAUCACCCAUGUUCCUC [salish99_ex4_r3_071] (puzzle: Exclusion 4)

[A]
1: 0.0453 µM; 2: 0.279 µM; 3: 0.385 µM; 4: 0.0197 µM
